- Measured On: Growth factor receptor-bound protein 2 (Homo sapiens, UniProt P62993)
- Measurement Protocol: Inhibition of Grb2-SH2 domain binding to phospho-EGF receptor intracellular C-terminal domain
Measurement Label: IC50 (nM)

Solved entries:
Compound	Measured On	IC50, nM
CC(=O)N[C@@H](Cc1ccc(CP(=O)(O)C(O)c2ccccc2)cc1)C(=O)NC1(C(=O)N[C@@H]2CCCC[C@@H]2C(N)=O)CCCCC1 (stereo partly specified)	Growth factor receptor-bound protein 2 (Homo sapiens, UniProt P62993)	530
CC(=O)N[C@@H](Cc1ccc(CP(=O)(O)CO)cc1)C(=O)NC1(C(=O)N[C@@H]2CCCC[C@@H]2C(N)=O)CCCCC1	Growth factor receptor-bound protein 2 (Homo sapiens, UniProt P62993)	7600
CC(=O)N[C@@H](Cc1ccc(CP(=O)(O)Cc2ccccc2)cc1)C(=O)NC1(C(=O)N[C@@H]2CCCC[C@@H]2C(N)=O)CCCCC1	Growth factor receptor-bound protein 2 (Homo sapiens, UniProt P62993)	1200
CC(=O)N[C@@H](Cc1ccc(CP(=O)(O)O)cc1)C(=O)NC1(C(=O)N[C@@H]2CCCC[C@@H]2C(N)=O)CCCCC1	Growth factor receptor-bound protein 2 (Homo sapiens, UniProt P62993)	700

(P) CC(=O)N[C@@H](Cc1ccc(CP(C)(=O)O)cc1)C(=O)NC1(C(=O)N[C@@H]2CCCC[C@@H]2C(N)=O)CCCCC1
(Q) CC(=O)N[C@@H](Cc1ccc(CP(=O)(O)CCO)cc1)C(=O)NC1(C(=O)N[C@@H]2CCCC[C@@H]2C(N)=O)CCCCC1
**Q:** // compare: P vs Q , metric IC50, want the smaller Reply with the label of the item you choose.
**A:** Q
